This collection of values is drawn from patent US10155798B2.

test.system: NMUR2 (neuromedin U 2 receptor) (Homo sapiens)
Sequence (Q9GZQ4 whole entry): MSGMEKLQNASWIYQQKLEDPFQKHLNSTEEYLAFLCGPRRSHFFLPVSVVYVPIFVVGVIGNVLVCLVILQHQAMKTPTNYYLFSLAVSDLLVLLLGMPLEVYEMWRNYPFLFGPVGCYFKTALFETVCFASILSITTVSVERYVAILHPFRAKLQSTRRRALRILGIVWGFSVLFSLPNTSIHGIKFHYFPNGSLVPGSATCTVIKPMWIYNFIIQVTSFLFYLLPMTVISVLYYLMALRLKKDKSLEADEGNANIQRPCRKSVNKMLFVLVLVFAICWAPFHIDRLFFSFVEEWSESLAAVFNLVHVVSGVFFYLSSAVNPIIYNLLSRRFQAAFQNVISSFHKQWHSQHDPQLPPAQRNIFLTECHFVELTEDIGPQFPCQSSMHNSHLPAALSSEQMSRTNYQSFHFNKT
procedure.details: Calcium mobilization assay, HEK-NMU2 cells
recorded.conditions: HEK293 cells expressing NMU2 receptor, NA = not active
Where a SMILES comes first, the peptide text is derived from it.
measurement.kind: EC50 (nM)
I only need the number, in nM, no unit after it.

Task item: Item under review: CC(=O)N[C@@H](Cc1ccccc1)C(=O)N[C@@H](CC(C)C)C(=O)N[C@@H](Cc1ccccc1)C(=O)N[C@@H](CCCNC(=N)N)C(=O)N1CCC[C@H]1C(=O)N[C@@H](CCCNC(=N)N)C(=O)N[C@@H](CC(N)=O)C(N)=O [Peptide M1, Ac-FL-Phe-Arg-Pro-R-Asn] (Ac-FLFRPRN-NH2) . Reported EC50?
Reply: 0.6
